Assayed System: native human Bradykinin B1 receptor (Homo sapiens, UniProt P46663)
Construct: which express native human Bradykinin B1 receptor after induction with human IL-1beta; Coriell Institute
Sequence (P46663 1-353): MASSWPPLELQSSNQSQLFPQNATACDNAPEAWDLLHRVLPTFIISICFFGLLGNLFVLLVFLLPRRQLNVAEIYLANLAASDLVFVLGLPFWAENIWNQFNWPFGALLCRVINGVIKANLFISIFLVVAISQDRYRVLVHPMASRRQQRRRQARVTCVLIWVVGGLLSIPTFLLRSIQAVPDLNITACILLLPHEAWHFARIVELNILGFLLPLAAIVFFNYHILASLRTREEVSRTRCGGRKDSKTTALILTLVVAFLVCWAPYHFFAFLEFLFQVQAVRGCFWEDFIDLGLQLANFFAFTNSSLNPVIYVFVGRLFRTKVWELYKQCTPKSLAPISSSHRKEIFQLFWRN
Procedure Details: Calcium flux assay (FLIPR) with IMR-90 human fibroblasts expressing Bradykinin B1 receptor after IL-1beta induction (hB1 IMR-90)
Condition Context: IMR-90 human fibroblasts after IL-1beta induction, read-out: hB1 IMR90 IC50
Recorded Metric: pIC50
Answer as the number alone; pIC50 is minus log10 of concentration in mol/L.

[[record]]
smiles = "CC(C)(C)c1cn(-c2c(F)cc(NC(=O)C3(c4ccc(OC(F)(F)F)cc4F)CC3)cc2C(=O)O)cn1"
assay_value = 8.12

[[record]]
smiles = "O=C(O)c1cc(NC(=O)C2(c3ccc(C(F)(F)F)cc3F)CC2)cc(F)c1-c1ccc(C(F)(F)F)nc1"
assay_value = 7.68

[[record]]
smiles = "O=C(O)c1cc(NC(=O)C2(c3ccc(C(F)(F)F)cc3F)CC2)ccc1-c1ccc(C(F)(F)F)nc1"
assay_value = 6.26


Here's the next entry for you.
According to the records, this compound O=C(O)c1cc(NC(=O)C2(c3ccc(C(F)(F)F)cc3F)CC2)ccc1-c1cc2ccccc2s1 displays pIC50 of 7.14

* * *

# key: entry, value: IC50
Assayed System: human Bradykinin B1 receptor (Homo sapiens, UniProt P46663)
Procedure Details: Calcium flux assay (FLIPR), CHO-K1 cells expressing human Bradykinin B1 receptor, absence of 0.1% BSA (hB1 free IC50)
Condition Context: absence of 0.1% BSA in assay buffer
Please respond with the number in nM and leave the unit unwritten.

Example cases with answers are listed next.
[[record]]
smiles = "O=C(O)c1cc(NC(=O)C2(c3ccc(C(F)(F)F)cc3F)CC2)cc(Cl)c1-c1ccc(C(F)(F)F)nc1"
recorded_metric = "IC50"
assay_value = 130

[[record]]
smiles = "CC(C)Cn1cc(-c2c(F)cc(NC(=O)C3(c4ccc(C(F)(F)F)cc4F)CC3)cc2C(=O)O)cn1"
recorded_metric = "IC50"
assay_value = 29

[[record]]
smiles = "O=C(O)c1cc(NC(=O)C2(c3ccc(C(F)(F)F)cc3F)CC2)ccc1-c1cnn(C2CCC2)c1"
recorded_metric = "IC50"
assay_value = 18


According to the records, this molecule O=C(O)c1cc(NC(=O)C2(c3ccc(C(F)(F)F)cc3F)CC2)ccc1-c1cnn(C2CCCC2)c1 displays IC50 of 18

* * *

Assayed System: native human Bradykinin B1 receptor (Homo sapiens, UniProt P46663)
Construct: which express native human Bradykinin B1 receptor after induction with human IL-1beta; Coriell Institute
Procedure Details: Calcium flux assay (FLIPR) with IMR-90 human fibroblasts expressing Bradykinin B1 receptor after IL-1beta induction (hB1 IMR-90)
Condition Context: IMR-90 human fibroblasts after IL-1beta induction, read-out: hB1 IMR90 IC50
pIC50: −log10 of the molar value.
# if value of pIC50 reaches 8, tag 1; if it stays below, tag -1

Could you tell me if the measured pIC50 of O=C(O)c1cc(NC(=O)C2(c3ccc(OC(F)(F)F)cc3)CC2)cc(F)c1-c1cnn(C2CCC2)c1 [Example 37] reaches 8 or more?
1

Could you tell me if the measured pIC50 of O=C(O)c1cc(NC(=O)C2(c3ccc(C(F)(F)F)cc3F)CC2)cc(F)c1-c1cnn(C2CCC2)c1 [Example 42] reaches 8 or more?
1

Could you tell me if the measured pIC50 of O=C(O)c1cc(NC(=O)C2(c3ccc(OC(F)(F)F)cc3F)CC2)ccc1-c1cnn(C2CCC2)c1 [Example 51] reaches 8 or more?
-1

Could you tell me if the measured pIC50 of O=C(O)c1cc(NC(=O)C2(c3ccc(F)cn3)CC2)cc(F)c1-c1cnn(C2CCC2)c1 [Example 44] reaches 8 or more?
-1

Could you tell me if the measured pIC50 of CCC(F)(F)c1ccc(-c2c(F)cc(NC(=O)C3(c4ccc(OC(F)(F)F)cc4F)CC3)cc2C(=O)O)cn1 [Example 97] reaches 8 or more?
-1

* * *

Assayed System: human Bradykinin B1 receptor (Homo sapiens)
Procedure Details: Calcium flux assay (FLIPR), CHO-K1 cells expressing human Bradykinin B1 receptor, absence of 0.1% BSA (hB1 free IC50)
Condition Context: absence of 0.1% BSA in assay buffer
Recorded Metric: pIC50
Answer as the number alone; pIC50 is minus log10 of concentration in mol/L.

[[record]]
smiles = "O=C(O)c1cc(NC(=O)C2(c3ccc(C(F)(F)F)cc3F)CC2)ccc1-c1cnn([C@@H]2CCOC2)c1"
recorded_metric = "pIC50"
assay_value = 6.25

[[record]]
smiles = "Cn1cc(-c2c(F)cc(NC(=O)C3(c4ccc(C(F)(F)F)cc4F)CC3)cc2C(=O)O)cn1"
recorded_metric = "pIC50"
assay_value = 7.11

[[record]]
smiles = "Cn1ncc2ccc(-c3c(F)cc(NC(=O)C4(c5ccc(C(F)(F)F)cc5F)CC4)cc3C(=O)O)cc21"
recorded_metric = "pIC50"
assay_value = 7.20


According to the records, this compound CC(C)(C)c1cnn(-c2ccc(NC(=O)C3(c4ccc(C(F)(F)F)cc4F)CC3)cc2C(=O)O)c1 displays pIC50 of 6.64

According to the records, this compound CCC(F)(F)c1ccc(-c2ccc(NC(=O)C3(c4ccc(C)cc4F)CC3)cc2C(=O)O)cn1 displays pIC50 of 6.85

According to the records, this compound CCCn1cc(-c2ccc(NC(=O)C3(c4ccc(C(F)(F)F)cc4F)CC3)cc2C(=O)O)cn1 displays pIC50 of 7.07

According to the records, this compound O=C(O)c1cc(NC(=O)C2(c3ccc(C(F)(F)F)cc3F)CC2)ccc1-n1cc(C(F)(F)F)cn1 displays pIC50 of 5.55

* * *

Assayed System: native human Bradykinin B1 receptor (Homo sapiens)
Construct: which express native human Bradykinin B1 receptor after induction with human IL-1beta; Coriell Institute
Sequence (P46663 1-353): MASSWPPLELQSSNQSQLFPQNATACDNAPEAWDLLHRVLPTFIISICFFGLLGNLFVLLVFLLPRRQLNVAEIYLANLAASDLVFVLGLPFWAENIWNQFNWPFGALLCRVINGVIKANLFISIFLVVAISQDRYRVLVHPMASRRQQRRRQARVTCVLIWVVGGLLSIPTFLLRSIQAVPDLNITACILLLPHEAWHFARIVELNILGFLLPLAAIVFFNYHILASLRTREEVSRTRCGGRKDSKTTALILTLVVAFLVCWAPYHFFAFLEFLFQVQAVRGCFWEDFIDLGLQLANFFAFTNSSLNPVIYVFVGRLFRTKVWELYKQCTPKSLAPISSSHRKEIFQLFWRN
Procedure Details: Calcium flux assay (FLIPR) with IMR-90 human fibroblasts expressing Bradykinin B1 receptor after IL-1beta induction (hB1 IMR-90)
Condition Context: IMR-90 human fibroblasts after IL-1beta induction, read-out: hB1 IMR90 IC50
pIC50: −log10 of the molar value.
# if value of pIC50 reaches 8, tag y; if it stays below, tag n

Take a look at these entries with their results.
[[record]]
smiles = "Cc1ccc(C2(C(=O)Nc3ccc(-n4cc(C(C)(C)C)cn4)c(C(=O)O)c3)CC2)c(F)c1"
class_assignment = "n"

[[record]]
smiles = "CC(C)(C)c1cn(-c2ccc(NC(=O)C3(c4ccc(C(F)(F)F)cc4F)CC3)cc2C(=O)O)cn1"
class_assignment = "n"

[[record]]
smiles = "CC(C)Cn1cc(-c2ccc(NC(=O)C3(c4ccc(OC(F)(F)F)cc4F)CC3)cc2C(=O)O)cn1"
class_assignment = "n"

[[record]]
smiles = "O=C(O)c1cc(NC(=O)C2(c3ccc(OC(F)(F)F)cc3F)CC2)cc(Cl)c1-c1cnn(C2CCC2)c1"
class_assignment = "y"


Note: attention shifts to another entry.
Could you tell me if the measured pIC50 of CCC(F)(F)c1ccc(-c2c(Cl)cc(NC(=O)C3(c4ccc(C(F)(F)F)cc4F)CC3)cc2C(=O)O)cn1 reaches 8 or more?
n

* * *

Assayed System: human Bradykinin B1 receptor (Homo sapiens)
Procedure Details: Calcium flux assay (FLIPR), CHO-K1 cells expressing human Bradykinin B1 receptor, absence of 0.1% BSA (hB1 free IC50)
Condition Context: absence of 0.1% BSA in assay buffer
Recorded Metric: IC50
The reply must contain the numeric value and, after it, the unit.

Example cases with answers are listed next.
[[record]]
compound = "O=C(O)c1cc(NC(=O)C2(c3ccc(C(F)(F)F)cc3F)CC2)ccc1-c1ccc(C(F)F)nc1"
assay_value = "110 nM"

[[record]]
compound = "O=C(O)c1cc(NC(=O)C2(c3ccc(F)c(Cl)c3)CC2)ccc1-c1cnn(C2CCC2)c1"
assay_value = "85 nM"

[[record]]
compound = "O=C(O)c1cc(NC(=O)C2(c3ccc(C(F)(F)F)cc3F)CC2)cc(Cl)c1-c1ccc(C(F)F)nc1"
assay_value = "110 nM"


Here's the next entry for you.
The reported IC50 value, human Bradykinin B1 receptor (Homo sapiens), for O=C(O)c1cc(NC(=O)C2(c3ccc(C(F)(F)F)cc3F)CC2)ccc1-c1cnn(CC(F)(F)F)c1 reads 31 nM
